study target: hAPJ receptor (Homo sapiens, UniProt P35414)
Construct: expressed in transfected cells; host or cells: HEK293, transient transfection with PEI
Sequence (P35414 1-380): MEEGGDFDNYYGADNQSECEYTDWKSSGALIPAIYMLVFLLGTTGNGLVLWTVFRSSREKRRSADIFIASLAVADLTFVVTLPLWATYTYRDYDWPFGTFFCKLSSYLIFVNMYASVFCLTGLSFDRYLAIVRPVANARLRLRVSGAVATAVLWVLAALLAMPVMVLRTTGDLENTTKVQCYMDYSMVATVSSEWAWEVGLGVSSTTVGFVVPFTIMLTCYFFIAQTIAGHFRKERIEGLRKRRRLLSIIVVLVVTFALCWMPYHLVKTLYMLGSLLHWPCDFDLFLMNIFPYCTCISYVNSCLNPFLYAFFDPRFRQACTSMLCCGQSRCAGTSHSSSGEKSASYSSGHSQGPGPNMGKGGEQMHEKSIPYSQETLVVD
assay info: BRET-based Gαi1 activation assay in HEK293 cells
Type: cell-based
Bridge positions count the residues as written; N and C are the ends. Square brackets hold non-standard residues; d marks the D form. Peptide text beside a SMILES is read from it. Nle = CCCC[C@H](N)C(=O)O
attribute measured: EC50 (nM)
Numbers only, in nM.

Prompt: Please give the documented EC50 of CCCC[C@H](NC(=O)[C@@H]1CCC(=O)NCCCC[C@H](N)C(=O)N[C@@H](CCCNC(=N)N)C(=O)N[C@@H](CCCNC(=N)N)C(=O)N1)C(=O)N[C@H]1CSSC[C@@H](C(=O)N[C@@H](CCCNC(=N)N)C(=O)N[C@H](C(=O)N2CCC[C@H]2C(=O)N[C@@H](Cc2ccccc2)C(=O)N2CCC[C@H]2C(=O)O)C(C)C)NC(=O)[C@H](Cc2c[nH]cn2)NC(=O)[C@H](CC(C)C)NC1=O [Compound 79, c[K-R-R-E]-Nle-c[C-L-H-C]-R-V-P-F-P] (H-KRRE[Nle]CLHCRVPFP-OH; lactam 1-4; disulfide 6-9)
Response: 4

====

study target: hAPJ receptor (Homo sapiens)
Construct: expressed in transfected cells; host or cells: HEK293, transient transfection with PEI
assay info: BRET-based Gαi1 activation assay in HEK293 cells
Assay type: cell-based
condition label: HEK293; Table V; read-out: Gαi1 Emax
Protocol: HEK293 cells were cultivated in high glucose DMEM medium having 10% FBS, 100 U/mL penicillin/streptomycin, 2 mM glutamine, and 20 mM HEPES at 37° C. in T175 flasks under humidified chamber at 5% CO2. […] After stimulation, 5 μM of coelanterazine 400A was added to each well and the plate was read using the BRET^2 filter set of a GeniosPro plate reader (Tecan, Austria). The BRET ratio was determined as GFP10em/RlucIIem. Data were plotted and EC50 values were determined using GraphPad Prism 8. […]
Provide the recorded Emax for the entries that follow.
Give bare numbers, in %.

Sample answers from the record:
# compound, study target, unit spec, recorded number
rows = [
    ("CCCC[C@H](NC(=O)[C@@H]1CCCN1C(=O)CNC(=O)[C@H](CCCCN)NC(=O)[C@@H]1Cc2cncn2CC=CC[C@H](NC(=O)[C@H](CCCNC(=N)N)NC(=O)[C@@H]2CCC(=O)N2)C(=O)N[C@@H](CCCNC(=N)N)C(=O)N[C@@H](CC(C)C)C(=O)N[C@@H](CO)C(=O)N1)C(=O)N1CCC[C@H]1C(=O)N[C@@H](Cc1ccccc1)C(=O)O [Compound 15, Pyr-R-c[X-R-L-S-Alh]c-K-G-P-Nle-P-F]", "hAPJ receptor (Homo sapiens)", "%", 99),
    ("CC(C)C[C@@H]1NC(=O)[C@H](CCCNC(=N)N)NC(=O)[C@@H](N)CC=CC[C@@H](C(=O)N[C@@H](CCCCN)C(=O)NCC(=O)N2CCC[C@H]2C(=O)N[C@H](Cc2ccc(OCc3ccccc3)cc2)C(=O)O)NC(=O)[C@H](CO)NC1=O [Compound 44, NH2-c[X-R-L-S-X]c-K-G-P-(D-TyrOBn)]", "hAPJ receptor (Homo sapiens)", "%", 104),
]

Would you be so kind as to report Emax for each listed record?
1. CC(C)C[C@@H]1NC(=O)[C@H](CCCNC(=N)N)NC(=O)[C@@H](N)CC=CC[C@@H](C(=O)N[C@@H](CCCCN)C(=O)NCC(=O)N2CCC[C@H]2C(=O)N[C@H](Cc2cccc3ccccc23)C(=O)O)NC(=O)[C@H](CO)NC1=O [Compound 42, NH2-c[X-R-L-S-X]c-K-G-P-(D-1Nal)]
2. CCCC[C@H](NC(=O)[C@@H]1CCCN1C(=O)CNC(=O)[C@H](CCCCN)NC(=O)[C@@H]1CC=CC[C@H](NC(=O)[C@H](CCCNC(=N)N)NC(=O)[C@@H]2CCC(=O)N2)C(=O)N[C@@H](CCCNC(=N)N)C(=O)N[C@@H](CC(C)C)C(=O)N[C@@H](CO)C(=O)N1)C(=O)N1CCC[C@H]1C(=O)N[C@@H](Cc1ccccc1)C(=O)O [Compound 97, Pyr-R-c[X-R-L-S-X]c-K-G-P-Nle-P-F, reference compound]

Response:
1: 103; 2: 101

====

assay info: in vivo
condition label: male, Sprague-Dawley, rat, plasma, iv, 3 mg/kg
attribute measured: level at 4 h
Param answer (str): number followed by unit.

Prompt: Please give the documented level at 4 h of CC(C)C[C@@H]1NC(=O)[C@H](CCCNC(=N)N)NC(=O)[C@@H](N)CC=CC[C@@H](C(=O)N[C@@H](CCCCN)C(=O)NCC(=O)N2CCC[C@H]2C(=O)N[C@H](Cc2ccc3ccccc3c2)C(=O)O)NC(=O)[C@H](CO)NC1=O [Compound 43, NH2-c[X-R-L-S-X]c-K-G-P-(D-2Nal)]
Response: 8600 ng/mL

====

Provide the recorded pEC50 for the entries that follow.
study target: hAPJ receptor (Homo sapiens, UniProt P35414)
Construct: expressed in transfected cells; host or cells: HEK293, transient transfection with PEI
assay info: BRET-based β-arrestin2 recruitment assay in HEK293 cells
Format: cell-based
Bridge positions count the residues as written; N and C are the ends. Square brackets hold non-standard residues; d marks the D form. Peptide text beside a SMILES is read from it. Phe(4-Br) = N[C@@H](Cc1ccc(Br)cc1)C(=O)O; hArg = N=C(N)NCCCC[C@H](N)C(=O)O; pGlu = O=C1CC[C@@H](C(=O)O)N1; Nle = CCCC[C@H](N)C(=O)O
Answers are plain numbers, as −log10 of the molar value.

Sample answers from the record:
# molecule, pEC50
data = [
    ("CCCC[C@H](NC(=O)[C@@H]1CCC(=O)NCCCC[C@H](N)C(=O)N[C@@H](CCCNC(=N)N)C(=O)N[C@@H](CCCNC(=N)N)C(=O)N1)C(=O)N[C@H]1CSSC[C@@H](C(=O)N[C@@H](CCCNC(=N)N)C(=O)N[C@H](C(=O)N2CCC[C@H]2C(=O)N[C@@H](Cc2ccccc2)C(=O)N2CCC[C@H]2C(=O)O)C(C)C)NC(=O)[C@H](Cc2c[nH]cn2)NC(=O)[C@H](CC(C)C)NC1=O [Compound 79, c[K-R-R-E]-Nle-c[C-L-H-C]-R-V-P-F-P] (H-KRRE[Nle]CLHCRVPFP-OH; lactam 1-4; disulfide 6-9)", 7.29),
    ("CC(C)C[C@@H]1NC(=O)[C@@H]2CCCN2C(=O)[C@@H](NC(=O)[C@H](CO)NC(=O)[C@H](CCCCNC(=N)N)NC(=O)[C@H](CCCNC(=N)N)NC(=O)[C@@H]2CCC(=O)N2)CCC(=O)NCCCC[C@@H](C(=O)N[C@@H](CCCNC(=N)N)C(=O)N[C@H](C(=O)N2CCC[C@H]2C(=O)N[C@@H](Cc2ccccc2)C(=O)N2CCC[C@H]2C(=O)O)C(C)C)NC(=O)[C@H](Cc2c[nH]cn2)NC1=O [Compound 91, Pyr-R-hR-S-[E-P-L-H-K]-R-V-P-F-P] ([pGlu]R[hArg]SEPLHKRVPFP-OH; lactam 5-9)", 6.76),
    ("CC(C)C[C@@H]1NC(=O)[C@@H]2CCCN2C(=O)[C@@H](NC(=O)[C@H](CO)NC(=O)[C@H](CCCNC(=N)N)NC(=O)[C@H](CCCCNC(=N)N)NC(=O)[C@@H]2CCC(=O)N2)CCC(=O)NCCCC[C@@H](C(=O)N[C@@H](CCCNC(=N)N)C(=O)N[C@H](C(=O)N2CCC[C@H]2C(=O)N[C@@H](Cc2ccccc2)C(=O)N2CCC[C@H]2C(=O)O)C(C)C)NC(=O)[C@H](Cc2c[nH]cn2)NC1=O [Compound 90, Pyr-hR-R-S-[E-P-L-H-K]-R-V-P-F-P]", 6.40),
    ("CCCC[C@H](NC(=O)[C@@H]1CCC(=O)NCCCC[C@H](N)C(=O)N[C@@H](CCCNC(=N)N)C(=O)N[C@@H](CCCNC(=N)N)C(=O)N1)C(=O)N1CCC[C@H]1C(=O)N[C@@H](CC(C)C)C(=O)N[C@@H](Cc1c[nH]cn1)C(=O)N[C@@H](CO)C(=O)N[C@@H](CCCNC(=N)N)C(=O)N[C@H](C(=O)N1CCC[C@H]1C(=O)N[C@@H](Cc1ccccc1)C(=O)N1CCC[C@H]1C(=O)O)C(C)C [Compound 72, c[K-R-R-E]-Nle-P-L-H-S-R-V-P-F-P] (H-KRRE[Nle]PLHSRVPFP-OH; lactam 1-4)", 7.33),
    ("CC(C)C[C@@H]1NC(=O)[C@@H]2CCCN2C(=O)[C@@H](NC(=O)[C@H](CO)NC(=O)[C@H](CCCNC(=N)N)NC(=O)[C@H](CCCNC(=N)N)NC(=O)[C@@H]2CCC(=O)N2)CCC(=O)NCCCC[C@@H](C(=O)N[C@@H](CCCNC(=N)N)C(=O)N[C@H](C(=O)N2CCC[C@H]2C(=O)N[C@@H](Cc2ccccc2)C(=O)N2C[C@H](OCc3ccccc3)C[C@H]2C(=O)O)C(C)C)NC(=O)[C@H](Cc2c[nH]cn2)NC1=O [Compound 93, Pyr-R-R-S-[E-P-L-H-K]-R-V-P-F-Hyp(OBn)]", 5.66),
]

Would you be so kind as to report pEC50 for each listed record?
1. CC(C)C[C@@H]1NC(=O)[C@@H]2CCCN2C(=O)[C@@H](NC(=O)[C@H](CO)NC(=O)[C@H](CCCNC(=N)N)NC(=O)[C@H](CCCNC(=N)N)NC(=O)[C@@H]2CCC(=O)N2)CCC(=O)NCCCC[C@@H](C(=O)N[C@@H](CCCNC(=N)N)C(=O)N[C@H](C(=O)N2CCC[C@H]2C(=O)N[C@@H](Cc2ccc(Br)cc2)C(=O)N2CCC[C@H]2C(=O)O)C(C)C)NC(=O)[C@H](Cc2c[nH]cn2)NC1=O [Compound 92, Pyr-R-R-S-[E-P-L-H-K]-R-V-P-4BrF-P] ([pGlu]RRSEPLHKRVP[Phe(4-Br)]P-OH; lactam 5-9)
2. CCCC[C@@H]1NC(=O)[C@@H](NC(=O)[C@H](CCCNC(=N)N)NC(=O)[C@H](CCCNC(=N)N)NC(=O)[C@@H]2CCC(=O)N2)CCC(=O)NCCCC[C@@H](C(=O)N[C@@H](Cc2c[nH]cn2)C(=O)N[C@@H](CO)C(=O)N[C@@H](CCCNC(=N)N)C(=O)N[C@H](C(=O)N2CCC[C@H]2C(=O)N[C@@H](Cc2ccccc2)C(=O)N2CCC[C@H]2C(=O)O)C(C)C)NC(=O)[C@@H]2CCCN2C1=O [Compound 75, Pyr-R-R-c[E-Nle-P-K]-H-S-R-V-P-F-P] ([pGlu]RRE[Nle]PKHSRVPFP-OH; lactam 4-7)

Response:
6.36
5.70

Prompt: Please give the documented pEC50 of CC(C)C[C@@H]1NC(=O)[C@@H]2CCCN2C(=O)[C@@H](NC(=O)[C@H](CO)NC(=O)[C@H](CCCNC(=N)N)NC(=O)[C@H](CCCNC(=N)N)NC(=O)[C@@H]2CCC(=O)N2)CCC(=O)NCCCC[C@@H](C(=O)N[C@@H](CCCNC(=N)N)C(=O)N[C@H](C(=O)N2CCC[C@H]2C(=O)N[C@@H](Cc2ccccc2)C(=O)N2CCC[C@H]2C(=O)O)C(C)C)NC(=O)[C@H](Cc2c[nH]cn2)NC1=O [Compound 77, Pyr-R-R-S-c[E-P-L-H-K]-R-V-P-F-P]
Response: 6.61
